Sourced from patent US8653089B2

target: p110 delta (Homo sapiens, UniProt O00329); construct: Dundee, UK; test: PI3K isoform inhibition assay (fluorescence polarization), p110 delta; settings: p110 delta binding IC50, selected compounds from Table 1
Sequence (O00329 whole entry, canonical isoform): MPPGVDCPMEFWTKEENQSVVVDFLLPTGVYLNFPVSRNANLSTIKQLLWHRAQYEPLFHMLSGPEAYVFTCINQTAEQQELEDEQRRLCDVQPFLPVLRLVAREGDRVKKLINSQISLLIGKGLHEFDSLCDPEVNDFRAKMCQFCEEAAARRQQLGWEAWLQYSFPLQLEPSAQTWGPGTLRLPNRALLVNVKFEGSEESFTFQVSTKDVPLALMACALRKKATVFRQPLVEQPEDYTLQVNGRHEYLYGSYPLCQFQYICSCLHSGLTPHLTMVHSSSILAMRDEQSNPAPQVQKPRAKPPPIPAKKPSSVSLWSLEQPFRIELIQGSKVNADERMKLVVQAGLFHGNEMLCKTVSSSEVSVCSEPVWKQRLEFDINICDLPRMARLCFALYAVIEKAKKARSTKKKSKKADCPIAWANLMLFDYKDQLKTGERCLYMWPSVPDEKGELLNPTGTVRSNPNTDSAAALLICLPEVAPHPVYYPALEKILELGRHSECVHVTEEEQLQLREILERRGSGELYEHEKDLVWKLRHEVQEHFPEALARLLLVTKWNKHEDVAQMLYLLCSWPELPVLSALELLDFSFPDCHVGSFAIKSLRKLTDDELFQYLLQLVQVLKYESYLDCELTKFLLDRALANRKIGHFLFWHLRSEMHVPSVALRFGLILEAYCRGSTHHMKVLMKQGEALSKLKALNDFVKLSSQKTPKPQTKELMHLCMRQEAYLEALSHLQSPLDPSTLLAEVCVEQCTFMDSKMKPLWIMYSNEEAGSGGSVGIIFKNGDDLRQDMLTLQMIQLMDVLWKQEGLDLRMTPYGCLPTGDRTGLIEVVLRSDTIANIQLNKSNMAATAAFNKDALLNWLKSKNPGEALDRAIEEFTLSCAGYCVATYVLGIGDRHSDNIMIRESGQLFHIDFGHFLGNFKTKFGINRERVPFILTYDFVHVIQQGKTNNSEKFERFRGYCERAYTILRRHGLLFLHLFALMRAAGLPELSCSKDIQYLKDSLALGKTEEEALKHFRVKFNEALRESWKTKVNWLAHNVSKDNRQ
Sequence (P27986 whole entry partner, canonical isoform): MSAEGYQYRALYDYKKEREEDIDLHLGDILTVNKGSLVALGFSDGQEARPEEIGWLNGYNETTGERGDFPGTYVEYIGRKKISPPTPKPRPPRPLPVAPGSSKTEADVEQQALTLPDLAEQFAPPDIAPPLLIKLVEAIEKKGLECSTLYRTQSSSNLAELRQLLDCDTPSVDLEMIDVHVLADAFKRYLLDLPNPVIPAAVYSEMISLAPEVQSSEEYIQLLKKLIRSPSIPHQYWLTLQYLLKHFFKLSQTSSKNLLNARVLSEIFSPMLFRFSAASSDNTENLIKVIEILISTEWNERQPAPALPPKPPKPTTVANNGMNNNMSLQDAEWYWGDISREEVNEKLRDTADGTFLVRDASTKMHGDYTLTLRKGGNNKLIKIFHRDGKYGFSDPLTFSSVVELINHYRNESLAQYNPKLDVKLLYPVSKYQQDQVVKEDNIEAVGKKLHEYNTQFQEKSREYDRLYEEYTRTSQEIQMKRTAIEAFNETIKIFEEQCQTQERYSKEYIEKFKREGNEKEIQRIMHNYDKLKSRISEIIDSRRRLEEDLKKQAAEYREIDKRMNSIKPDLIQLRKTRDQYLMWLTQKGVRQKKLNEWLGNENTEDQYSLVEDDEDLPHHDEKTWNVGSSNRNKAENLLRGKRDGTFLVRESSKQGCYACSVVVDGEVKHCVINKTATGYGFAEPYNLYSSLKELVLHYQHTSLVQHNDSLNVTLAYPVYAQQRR
Classes by IC50: lo = under 10 nM, med = from 10 nM up to 60 nM, hi = 60 nM and over

Input line: Class for Nc1ncnc2c1ncn2Cc1nc2ccccc2n1-c1ccccc1 ?
Output line: hi

Input line: Would you mind sorting CC(Nc1ncnc2[nH]cnc12)c1oc2ccccc2c1-c1ccccc1 (centres unmarked) into the appropriate category?
Output line: med

Input line: Please let me know in which category the item CC[C@H](Nc1ncnc2[nH]cnc12)c1nc2ccccc2n1-c1ccccc1 belongs.
Output line: lo

Input line: Just checking, what class would you give CC(Nc1ncnc2[nH]cnc12)c1sc2ccccc2c1-c1ccccc1 (centres unmarked) here?
Output line: med

Input line: Category of Nc1ncnc2c1ccn2Cc1nc2ccccc2n1-c1ccccc1 , please.
Output line: hi

Input line: Form: Item = C[C@H](Nc1ncnc2[nH]cnc12)c1nc2c(Cl)cccc2n1-c1ccccc1 ; Class = ?
Output line: lo

Input line: Band for CC(Nc1ncnc2[nH]cnc12)c1nc2ccccc2n1-c1ccccc1 (racemic) ?
Output line: lo

Input line: Which IC50 band matches Cc1nn(Cc2nc3ccccc3n2-c2ccccc2)c2ncnc(N)c12 ?
Output line: hi

Input line: Which bin, given its IC50, does CC(=O)N1CCC(n2c([C@H](C)Nc3ncnc4[nH]cnc34)nc3ccccc32)CC1 occupy?
Output line: med

Input line: Given C[C@H](Nc1ncnc2[nH]cnc12)c1nc2ccccc2n1C1CCN(C2COC2)CC1 , name the class its IC50 places it in.
Output line: hi

Input line: Any idea which band C[C@H](Nc1ncnc2[nH]cnc12)c1nc2ccccc2n1C1CCCOC1 (some centres unmarked) is in?
Output line: med

Input line: Looking at C[C@H](Nc1ncnc2sccc12)c1nc2ccccc2n1-c1ccccc1 , which class would you pick?
Output line: hi

Input line: // bin(item) where item = C[C@H](Nc1ncnc2[nH]cnc12)c1nc2cccnc2n1-c1ccccc1
Output line: med

Input line: Hi there! Could you help me figure out the category for C[C@H](Nc1ncnc2[nH]cnc12)c1nc2ccc(F)cc2n1-c1ccccc1 please?
Output line: lo
